Test system: RSK4(Kin.Dom.2-C-terminal);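 note: KINOMEscan kinase panel screen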
Construct: gene RPS6KA6
Assay context: concentration: 1 μM, replicates: in singlicate; n = 1
Decision: %Inh >= 20% yields met, all other cases yield not met.

Ask | For this compound, is measured %Inh 20% or higher? Cl.Cl.c1ccc(-c2cc3ccncc3cc2OC2CCNCC2)cc1
Reply | met

Ask | For this compound, is measured %Inh 20% or higher? COc1ccc(NC(=O)c2ccc(-c3cc(-c4nnc(C)o4)ccc3C)cc2)cc1
Reply | not met

Ask | For this compound, is measured %Inh 20% or higher? CC(C)(C)OC(=O)NC1CCCN(c2cc(-c3ccc4c(N)n[nH]c4c3)nc(N)n2)C1 (centres unmarked)
Reply | met

Ask | For this compound, is measured %Inh 20% or higher? FC(F)(F)c1ccc(-c2nn3ncccc3c2-c2ccnc(Nc3cccc(C(F)(F)F)c3)n2)cc1
Reply | not met

Ask | For this compound, is measured %Inh 20% or higher? Cl.Fc1ccccc1COc1ccc(Nc2ncnc3ccc(-c4nnc(C(F)(F)F)o4)cc23)cc1Cl
Reply | not met

Ask | For this compound, is measured %Inh 20% or higher? COc1ccc(-c2oc3ncnc(N)c3c2-c2ccc(OC)cc2)cc1
Reply | met

Ask | For this compound, is measured %Inh 20% or higher? Nc1nc(-c2ccc3c(N)n[nH]c3c2)cc(N2CCC[C@@H](C(=O)Nc3ccccc3)C2)n1.O=C(O)C(F)(F)F.O=C(O)C(F)(F)F
Reply | not met

Ask | For this compound, is measured %Inh 20% or higher? O=C(NCCCN1CCCC1=O)c1cnc(NCc2cc(Cl)ccc2Cl)nc1NC1CCNCC1
Reply | not met

The measurements presented in this section are drawn from paper PMC5540273.
